Biological target: N-terminal GST tagged full length human TTK kinase (Homo sapiens, UniProt P33981)
Construct: N-terminal GST tagged full length human TTK kinase; GST (N); made in house; host or cells: insect cells
Test: In Vitro TTK Kinase Assay 2 (Caliper LabChip LC3000)
Format: biochemical
Settings: recombinant TTK, 12 μM ATP, read-out: EAA2: Enzyme Assay Activity (In Vitro TTK kinase assay 2)
QUANTITY_NAME: IC50 (nM)

P. CCn1c(=O)n(C2CCCC2)c2nc(Nc3ccc(C(=O)NC)cc3OC)ncc21 [Example 31]
Q. COc1cc(OC2CCN(C)CC2)ccc1Nc1ncc2c(n1)n(C(C)C)c(=O)n2C [Example 42]
Returns the identifier with the smallest measured IC50 among P and Q . Your answer should be the label of the entry you select.
P
(P: 16.4 nM, Q: 68.8 nM)

I. CCOc1cc(N2CCC(N(C)C)CC2)ccc1Nc1ncc2c(n1)n(C1CCCC1)c(=O)n2C [Example 23]
II. COc1cc(C(=O)N(C)C)ccc1Nc1ncc2c(n1)n(C1CCCC1)c(=O)n2C [Example 65]
Returns the identifier with the smallest measured IC50 among I and II . Your answer should be the label of the entry you select.
II
(II: 27 nM, I: 75.6 nM)

====

Biological target: N-terminal GST tagged full length human TTK kinase (Homo sapiens)
Construct: N-terminal GST tagged full length human TTK kinase; GST (N); made in house; host or cells: insect cells
Test: In Vitro TTK Kinase Assay 1 (AlphaScreen)
Format: biochemical
Conditions: recombinant TTK, 10 μM ATP, read-out: EAA: Enzyme Assay Activity (In Vitro TTK kinase assay 1)
Experimental: Aliquots (2 μL) of each compound dilution were placed into wells of a Greiner 384-well low volume white polystyrene plate (Greiner Bio-one). The resultant signals arising from laser light excitation at 680 nm were read using a Packard Envision instrument.
pIC50: −log10 of the molar value.
QUANTITY_NAME: pIC50

In the examples that follow, each entry is paired with its recorded pIC50.
COc1cc(C2CCN(C)CC2)ccc1Nc1ncc2c(n1)n(C1CCCC1)c(=O)n2C 7.26
COc1cc(C(=O)NC2CCN(C)CC2)ccc1Nc1ncc2c(n1)n(C1CCCC1)c(=O)n2CC#N 6.30
CCN1CCC(NC(=O)c2cc(F)c(Nc3ncc4c(n3)n(C3CCCC3)c(=O)n4C)cc2F)CC1 5.03
CN1CCN(c2ccc(Nc3ncc4c(n3)n(C3CCCC3)c(=O)n4C)c(Cl)c2)CC1 6.60

A. COc1cc(N2CCN(C)CC2)ccc1Nc1ncc2c(n1)n(C1CCCC1)c(=O)n2CC#N
B. CN1CCC(NC(=O)c2ccc(Nc3ncc4c(n3)n(C3CCCC3)c(=O)n4C)cc2F)CC1
Returns the identifier with the smallest measured pIC50 among A and B . Your answer should be the label of the entry you select.
B

====

Target: N-terminal GST tagged full length human TTK kinase (Homo sapiens, UniProt P33981)
Construct: N-terminal GST tagged full length human TTK kinase; GST (N); made in house; host or cells: insect cells
Sequence (P33981 1-857): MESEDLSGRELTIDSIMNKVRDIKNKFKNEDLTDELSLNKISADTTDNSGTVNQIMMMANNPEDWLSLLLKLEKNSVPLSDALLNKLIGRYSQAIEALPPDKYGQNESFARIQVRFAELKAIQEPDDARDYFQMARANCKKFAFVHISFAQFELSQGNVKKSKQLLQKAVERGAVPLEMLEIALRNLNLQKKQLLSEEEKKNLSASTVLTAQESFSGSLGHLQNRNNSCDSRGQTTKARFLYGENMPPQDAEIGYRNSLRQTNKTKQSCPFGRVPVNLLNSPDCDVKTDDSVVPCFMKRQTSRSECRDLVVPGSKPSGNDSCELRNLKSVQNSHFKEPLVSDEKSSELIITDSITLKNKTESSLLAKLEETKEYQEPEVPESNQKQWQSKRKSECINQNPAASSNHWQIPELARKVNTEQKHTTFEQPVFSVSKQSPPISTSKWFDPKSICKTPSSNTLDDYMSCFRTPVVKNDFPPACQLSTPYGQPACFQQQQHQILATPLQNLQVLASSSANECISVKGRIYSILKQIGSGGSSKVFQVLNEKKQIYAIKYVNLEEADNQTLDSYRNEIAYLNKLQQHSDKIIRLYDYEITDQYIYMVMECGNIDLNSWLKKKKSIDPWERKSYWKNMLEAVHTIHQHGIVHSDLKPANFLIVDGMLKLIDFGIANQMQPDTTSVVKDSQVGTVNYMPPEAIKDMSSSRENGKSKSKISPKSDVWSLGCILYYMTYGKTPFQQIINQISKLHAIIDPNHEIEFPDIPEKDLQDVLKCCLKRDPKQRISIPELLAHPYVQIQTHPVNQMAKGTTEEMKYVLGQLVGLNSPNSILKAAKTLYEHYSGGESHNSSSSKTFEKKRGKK
Experiment: In Vitro TTK Kinase Assay 1 (AlphaScreen)
Type: biochemical
Details: recombinant TTK, 10 μM ATP, read-out: EAA: Enzyme Assay Activity (In Vitro TTK kinase assay 1)
Protocol: Aliquots (2 μL) of each compound dilution were placed into wells of a Greiner 384-well low volume white polystyrene plate (Greiner Bio-one). The resultant signals arising from laser light excitation at 680 nm were read using a Packard Envision instrument.
QUANTITY_NAME: IC50 (nM)

I. COc1cc(C2CCN(C)CC2)ccc1Nc1ncc2c(n1)n(C(C)C)c(=O)n2C
II. CNC(=O)c1ccc(Nc2ncc3c(n2)n(C2CCCC2)c(=O)n3C)c(OC)c1
III. CCn1c(=O)n(C2CCCC2)c2nc(Nc3ccc(OC4CCN(C)CC4)cc3OC)ncc21
IV. CCn1c(=O)n(C2CCCC2)c2nc(Nc3ccc(N4CCN(C)CC4)cc3OC)ncc21
V. COc1cc(C(=O)NC2CCN(C)CC2)ccc1Nc1ncc2c(n1)n(C1CCCC1)c(=O)n2C
Reorder the list above by recorded IC50 in ascending order. // ordering of labels required in reply
III, IV, II, V, I

====

Target: N-terminal GST tagged full length human TTK kinase (Homo sapiens, UniProt P33981)
Construct: N-terminal GST tagged full length human TTK kinase; GST (N); made in house; host or cells: insect cells
Sequence (P33981 1-857): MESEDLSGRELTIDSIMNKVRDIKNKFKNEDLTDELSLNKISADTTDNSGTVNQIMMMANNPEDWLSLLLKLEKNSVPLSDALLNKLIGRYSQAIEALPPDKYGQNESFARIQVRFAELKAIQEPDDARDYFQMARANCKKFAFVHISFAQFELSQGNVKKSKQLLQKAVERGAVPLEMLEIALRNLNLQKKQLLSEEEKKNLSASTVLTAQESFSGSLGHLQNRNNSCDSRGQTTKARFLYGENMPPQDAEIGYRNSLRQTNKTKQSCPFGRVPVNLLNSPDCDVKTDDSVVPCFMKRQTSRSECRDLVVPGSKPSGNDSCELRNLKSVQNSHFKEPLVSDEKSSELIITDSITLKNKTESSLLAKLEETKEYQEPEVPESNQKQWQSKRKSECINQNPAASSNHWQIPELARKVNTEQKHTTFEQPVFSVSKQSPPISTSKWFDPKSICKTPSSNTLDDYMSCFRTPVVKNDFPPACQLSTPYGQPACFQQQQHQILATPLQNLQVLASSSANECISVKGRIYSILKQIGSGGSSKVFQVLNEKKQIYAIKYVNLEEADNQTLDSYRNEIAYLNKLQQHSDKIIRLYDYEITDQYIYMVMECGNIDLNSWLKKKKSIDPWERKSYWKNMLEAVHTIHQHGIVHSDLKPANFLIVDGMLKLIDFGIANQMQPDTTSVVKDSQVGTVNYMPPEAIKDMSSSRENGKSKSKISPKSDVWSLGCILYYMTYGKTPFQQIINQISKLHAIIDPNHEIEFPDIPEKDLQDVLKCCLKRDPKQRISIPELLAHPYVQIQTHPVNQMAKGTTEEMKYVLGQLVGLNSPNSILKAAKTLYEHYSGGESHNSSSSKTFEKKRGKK
Assay: In Vitro TTK Kinase Assay 1 (AlphaScreen)
Type: biochemical
Details: recombinant TTK, 10 μM ATP, read-out: EAA: Enzyme Assay Activity (In Vitro TTK kinase assay 1)
pIC50: −log10 of the molar value.
QUANTITY_NAME: pIC50

In the examples that follow, each entry is paired with its recorded pIC50.
COMPOUND	pIC50
CCOc1cc(OCCN(C)C)ccc1Nc1ncc2c(n1)n(C1CCCC1)c(=O)n2C	6.83
Cn1c(=O)n(C2CCCC2)c2nc(Nc3ccc(N4CCS(=O)(=O)CC4)cc3)ncc21	5.93
N#CCn1c(=O)n(C2CCCC2)c2nc(Nc3ccc(S(N)(=O)=O)cc3)ncc21	5.82

I. COc1cc(N2CCN(C)CC2)ccc1Nc1ncc2c(n1)n(C1CCCC1)c(=O)n2C
II. CCn1c(=O)n(C2CCCC2)c2nc(Nc3ccc(S(N)(=O)=O)cc3)ncc21
III. Cn1c(=O)n(C2CCCC2)c2nc(Nc3ccc(S(N)(=O)=O)cc3)ncc21
IV. COc1cc(N2CCOCC2)ccc1Nc1ncc2c(n1)n(C1CCCC1)c(=O)n2C
V. CN1C2CCCC1CC(NC(=O)c1ccc(Nc3ncc4c(n3)n(C3CCCC3)c(=O)n4C)c(F)c1)C2 (centres unmarked)
Order these by pIC50, descending, and give the full ranking. // ordering of labels required in reply
I, IV, II, V, III
